biological target: human M1 receptor (hCHRM1) (Homo sapiens); construct: expressed in transfected cells; host or cells: CHO-K1; assay: Measurement of M1 receptor positive allosteric modulator (M1PAM) activity, calcium fluorescence (FLIPRtetra) in CHO-K1 cells in the presence of acetylcholine at EC20; assay type: cell-based; settings: test compound 10 μM, in the presence of acetylcholine at EC20 (final 0.6 nM), CHO-K1 cells expressing hCHRM1
Sequence (P11229 whole entry): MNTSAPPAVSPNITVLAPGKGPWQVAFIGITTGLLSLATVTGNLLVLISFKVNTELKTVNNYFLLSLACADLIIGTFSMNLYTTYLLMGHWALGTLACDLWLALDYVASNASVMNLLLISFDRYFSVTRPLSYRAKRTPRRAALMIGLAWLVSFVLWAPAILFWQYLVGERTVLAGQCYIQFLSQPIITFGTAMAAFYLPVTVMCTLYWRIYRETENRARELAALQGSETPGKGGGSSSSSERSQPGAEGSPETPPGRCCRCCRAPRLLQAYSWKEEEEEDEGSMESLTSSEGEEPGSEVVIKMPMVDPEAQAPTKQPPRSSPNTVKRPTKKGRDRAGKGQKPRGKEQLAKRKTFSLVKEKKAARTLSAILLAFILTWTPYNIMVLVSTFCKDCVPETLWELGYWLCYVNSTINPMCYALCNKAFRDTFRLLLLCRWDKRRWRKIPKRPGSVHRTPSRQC
property: activity (%) at 10 μM
Give bare numbers, in %.

Problem: Give reported activity (%) at 10 μM value for Cc1nn(C)cc1-c1ccc(CN2Cc3ccnc(Oc4cc(C(C)(C)O)ccc4F)c3C2=O)cc1 [Example 312]
Result: 96

Problem: Give reported activity (%) at 10 μM value for Cn1cc(-c2ccc(CN3Cc4cccc(O[C@H]5CCCC[C@@H]5O)c4C3=O)cc2)cn1 (relative stereo) [Example 1]
Result: 102

Problem: Give reported activity (%) at 10 μM value for Cc1nn(C)cc1-c1ccc(CN2Cc3ccnc(OCc4ncccc4F)c3C2=O)c(F)c1 [Example 329]
Result: 106

Problem: Give reported activity (%) at 10 μM value for C[C@@H](O)[C@@H](C)Oc1nccc2c1C(=O)N(Cc1ccc(Cl)cc1)C2 [Example 423]
Result: 96

Problem: Give reported activity (%) at 10 μM value for Cc1nn(C)cc1-c1ccc(CN2Cc3ccnc(OCC4CCCO4)c3C2=O)c(F)c1 (centres unmarked) [Example 229]
Result: 117

Problem: Give reported activity (%) at 10 μM value for CCc1cc(F)c(Oc2nccc3c2C(=O)N(Cc2ccc(-c4ccn(C)n4)cc2)C3)c(F)c1 [Example 430]
Result: 110

Problem: Give reported activity (%) at 10 μM value for CCn1cc(-c2ccc(CN3Cc4ccnc(OC5CCC5)c4C3=O)cc2)cn1 [Example 404]
Result: 87

Next item in the queue.
Problem: Give reported activity (%) at 10 μM value for Cn1cc(-c2ccc(CN3Cc4ncnc(Oc5ccc(C(F)F)cc5F)c4C3=O)cc2)cn1 [Example 307]
Result: 92

###

biological target: human M1 receptor (hCHRM1) (Homo sapiens); test: Measurement of M1 receptor positive allosteric modulator (M1PAM) activity, calcium fluorescence (FLIPRtetra) in CHO-K1 cells in the presence of acetylcholine at EC20; settings: inflection point of M1PAM activity, in the presence of acetylcholine at EC20 (final 0.6 nM), CHO-K1 cells expressing hCHRM1; read-out: IP value
Structures can show the parent of a compound that is named as a salt.
Would you mind sorting the entries by EC50 according to these classes? small value (below 0.02 µM), mid value (0.02 µM to below 0.06 µM), large value (0.06 µM or more)

Solved entries:
Problem: Hello team, could you let me know which band the following compound falls into: Cn1cc(-c2ccc(CN3Cc4ccnc(OC5CCC5)c4C3=O)c(F)c2)nn1
Result: small value

Problem: Hello team, could you let me know which band the following compound falls into: Cc1cc(-c2ccc(CN3Cc4ccnc(Oc5ccc(C#N)cc5F)c4C3=O)cc2)on1
Result: mid value

Problem: Hello team, could you let me know which band the following compound falls into: Cn1cc(-c2ccc(CN3Cc4ccnc(Oc5c(F)cccc5Cl)c4C3=O)cc2)nn1
Result: mid value

Problem: Hello team, could you let me know which band the following compound falls into: Cn1cc(-c2ccc(CN3Cc4cccc(O[C@H]5CCC(F)(F)C[C@@H]5O)c4C3=O)cc2)cn1 (relative stereo)
Result: small value

Problem: Hello team, could you let me know which band the following compound falls into: CCNC(=O)c1ccc(CN2Cc3ccnc(Oc4ccc(C)cc4F)c3C2=O)cc1
Result: mid value

More entries:
Problem: Hello team, could you let me know which band the following compound falls into: Cc1cc(-c2ccc(CN3Cc4ccnc(O[C@@H]5CCC[C@H]5O)c4C3=O)cc2)ccn1 (single isomer, unassigned) [Example 259, hydrochloride]
Result: large value

Problem: Hello team, could you let me know which band the following compound falls into: Cc1cc(-c2ccc(CN3Cc4ccnc(OCC5CCCO5)c4C3=O)cc2)ccn1 (stereo not shown)
Result: small value
